Study target: human GPR131 (Homo sapiens)
Construct: expressed in transfected cells
Sequence (Q8TDU6 whole entry): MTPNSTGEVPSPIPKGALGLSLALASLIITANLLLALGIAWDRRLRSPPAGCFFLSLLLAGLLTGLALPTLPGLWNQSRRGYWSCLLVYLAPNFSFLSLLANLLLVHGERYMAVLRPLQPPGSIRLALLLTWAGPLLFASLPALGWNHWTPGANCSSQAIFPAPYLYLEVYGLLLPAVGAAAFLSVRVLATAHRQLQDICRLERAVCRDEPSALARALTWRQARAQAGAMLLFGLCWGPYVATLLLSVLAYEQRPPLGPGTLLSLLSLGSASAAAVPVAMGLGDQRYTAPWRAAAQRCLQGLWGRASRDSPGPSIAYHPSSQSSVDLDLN
Experimental protocol: Stimulation of cAMP in stable cell line expressing human GPR131 (FRET cAMP kit)
Format: cell-based
Experimental parameters: 0.5 h; 1.1 μM compound, relative to maximal stimulatory activity of lithocholic acid at 3.3 μM; 30 minutes at 37° C.; read-out: Percent Activity @ 1.1 μM (of 3.3 uM LCA) (%)
Measure: activation at 1.1 µM
Please answer using a numeric value trailed by its unit.

| Chemical structure | Study target | activation at 1.1 µM |
| --- | --- | --- |
| Cc1nc(CSc2ncc(C(=O)N(C)Cc3cn(C)nc3C)n2-c2ccc(F)cc2)no1 | human GPR131 (Homo sapiens) | 99% |
| CCN(Cc1cn(C)nc1C)C(=O)c1cnc(SCc2c(F)ccc(F)c2F)n1-c1ccc(F)cc1 | human GPR131 (Homo sapiens) | 100% |
| Cc1ccc(F)c(CSc2ncc(C(=O)N(C)Cc3ccncc3)n2-c2ccc(F)cc2)c1Cl | human GPR131 (Homo sapiens) | 99% |
| CCOC(=O)CSc1ncc(C(=O)N(C)Cc2cn(C)nc2C)n1-c1ccc(F)cc1 | human GPR131 (Homo sapiens) | 94% |
| CN(Cc1ccnc(Cl)c1)C(=O)c1cnc(SCc2c(F)ccc(F)c2F)n1-c1ccc(F)cc1 | human GPR131 (Homo sapiens) | 99% |
| CN(Cc1ccncc1)C(=O)c1cnc(SCc2c(F)cccc2Cl)n1-c1cccc(F)c1 | human GPR131 (Homo sapiens) | 99% |

Q) Value lookup for activation at 1.1 µM; key = `Cc1nn(C)cc1CN(C)C(=O)c1cnc(SCC(=O)c2ccccc2)n1-c1ccc(F)cc1`
A) 96%

Q) Value lookup for activation at 1.1 µM; key = `Cc1cc(CN(C)C(=O)c2cnc(SCc3ccccc3Cl)n2-c2ccc(F)cc2)ccn1`
A) 98%

Q) Value lookup for activation at 1.1 µM; key = `Cc1nc(C)c(CN(C)C(=O)c2cnc(SCc3c(F)ccc(F)c3F)n2-c2ccc(F)cc2)s1`
A) 100%

Q) Value lookup for activation at 1.1 µM; key = `Cc1ccc(Cl)c(CSc2ncc(C(=O)N(C)Cc3ccncc3)n2-c2ccc(F)cc2)c1F`
A) 100%

Q) Value lookup for activation at 1.1 µM; key = `Cc1ccc(Cl)c(CSc2ncc(C(=O)N(C)Cc3cn(C)nc3C)n2-c2ccc(F)cc2)c1F`
A) 100%

Q) Value lookup for activation at 1.1 µM; key = `Fc1ccc(-n2c(COCc3ccncc3)nnc2SCc2c(F)ccc(F)c2F)cc1`
A) 98%

Q) Value lookup for activation at 1.1 µM; key = `Cc1nn(C)cc1CN(C)C(=O)c1cnc(SCc2c(F)ccc(F)c2F)n1-c1ccc(F)cc1`
A) 99%

Q) Value lookup for activation at 1.1 µM; key = `CN(Cc1ccncc1)C(=O)c1cnc(SCc2c(F)cccc2Cl)n1-c1ccc(F)cc1`
A) 100%

Q) Value lookup for activation at 1.1 µM; key = `Cc1cc(CN(C)C(=O)c2c(C)nc(SCc3c(F)ccc(F)c3F)n2-c2ccc(F)cc2)ccn1`
A) 97%

Q) Value lookup for activation at 1.1 µM; key = `CN(Cc1cnn(C)c1)C(=O)c1cnc(SCc2c(F)ccc(F)c2F)n1-c1ccc(F)cc1`
A) 98%

Provenance of the data: patent US8703776B2
